Values from patent US11814435B2

- assayed target: hCD3 (human CD3) (Homo sapiens, UniProt P07766)
- Sequence (P07766 23-126 limits assumed): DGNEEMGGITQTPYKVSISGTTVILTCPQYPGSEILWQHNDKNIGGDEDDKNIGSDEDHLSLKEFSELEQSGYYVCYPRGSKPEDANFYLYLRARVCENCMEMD
- Sequence (P04234 22-105 partner limits assumed): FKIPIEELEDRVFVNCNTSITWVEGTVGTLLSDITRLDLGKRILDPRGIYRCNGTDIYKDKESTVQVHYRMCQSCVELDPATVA
- test: Kinetics and affinity of hCD3/human IgG interactions by SPR (Bio-Rad Proteon XPR36)
- Format: binding
- applied conditions: 37° C.
A collection of molecules and their measured kd huCD3ed @37° C.
Answer with a number only, understood to be in s⁻¹.

Check out these entries, answers already filled in.
{"molecule": "h2B4-VH-yaes VL_TK: anti-CD3 antibody (antibody, V domains shown) VH: EVQLVESGGGLVQPGGSLRLSCAASGFTFSDYYMTWVRQAPGKGLEWVAFIRNRARGYTSDYAESVKGRFTISRDNAKNSLYLQMNSLRAEDTAVYYCARDRPSYYVLDYWGQGTTVTVSS VL: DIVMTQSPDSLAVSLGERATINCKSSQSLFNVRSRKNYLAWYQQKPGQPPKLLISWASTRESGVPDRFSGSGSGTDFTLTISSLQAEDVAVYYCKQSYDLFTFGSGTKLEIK", "quantitative readout": 0.023}
{"molecule": "h2B4-VH-yads VL_TK: anti-CD3 antibody (antibody, V domains shown) VH: EVQLVESGGGLVQPGGSLRLSCAASGFTFSDYYMTWVRQAPGKGLEWVAFIRNRARGYTSDYADSVKGRFTISRDNAKNSLYLQMNSLRAEDTAVYYCARDRPSYYVLDYWGQGTTVTVSS VL: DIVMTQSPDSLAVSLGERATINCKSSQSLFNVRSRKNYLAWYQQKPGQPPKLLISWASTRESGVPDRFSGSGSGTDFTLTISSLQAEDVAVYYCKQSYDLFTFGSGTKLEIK", "quantitative readout": 0.021}

Attention now turns to another entry.
The value of kd huCD3ed @37° C. measured for the molecule h2B4-VH-yaps VL_TK: anti-CD3 antibody (antibody, V domains shown) VH: EVQLVESGGGLVQPGGSLRLSCAASGFTFSDYYMTWVRQAPGKGLEWVAFIRNRARGYTSDYAPSVKGRFTISRDNAKNSLYLQMNSLRAEDTAVYYCARDRPSYYVLDYWGQGTTVTVSS VL: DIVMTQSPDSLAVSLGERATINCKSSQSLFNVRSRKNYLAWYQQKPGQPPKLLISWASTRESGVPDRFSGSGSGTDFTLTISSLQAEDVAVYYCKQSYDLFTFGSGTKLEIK turned out to be 0.023
